system: CD8F1 mice, subcutaneous mammary adenocarcinoma, T/C%; experiment: NCI In Vivo Anticancer Drug Screen. Data for tumor model Mammary Adenocarcinoma CD8F1 (subcutaneous) in CD8F1; conditions: endpoint: median tumor weight (est.); dose: 25.0 mg/kg/injection; schedule: Q07DX005 (ip); vehicle: saline; higher = larger tumour
Records with an inconclusive call do not appear.
For each record, write down the corresponding T/C.

Per the record, OC(CCl)CN1CC[N+]2(CC1)CC[N+]1(CCN(CC(O)CCl)CC1)CC2 (stereo unspecified) has T/C of 67 % of control

Per the record, `CNc1nc(N(C)C)nc(N(C)C)n1` has T/C of 108 % of control

Per the record, `CCCCCCCCCCCCCCCCP(=O)(OCCOCCCCCC)OCCOCCCCCC` has T/C of 72 % of control

Per the record, [N-]=[N+]=CC(=O)CCC(N)C(=O)O (stereo unspecified) has T/C of 47 % of control

Per the record, Cc1cn(C2CC3[O][Sn]([c]4ccccc4)([c]4ccccc4)[O]CC3O2)c(=O)[nH]c1=O (stereo unspecified) has T/C of 16 % of control

Per the record, NC(=S)c1ncn(C2OC(CO)C(O)C2O)c1N (stereo unspecified) has T/C of 48 % of control

Per the record, `OCCN1CCN(CC/C=C2/c3ccccc3Sc3ccc(C(F)(F)F)cc32)CC1` has T/C of 101 % of control

Per the record, O=C1C=CN(C2OC(CO)C(O)C2O)C(=O)C1 (stereo unspecified) has T/C of 99 % of control

Per the record, `CC[N](CC)[Ge]([CH2]C)[CH2]C.CC[N](CC)[Ge]([CH2]C)[CH2]C` has T/C of 124 % of control

Per the record, COc1cc(C)c2c(c1C=O)Oc1c(c(C)c(O)c3c1C(O)OC3=O)OC2=O (stereo unspecified) has T/C of 75 % of control

Per the record, Cc1cn(C2CC(O)C(CO)O2)c(=O)[nH]c1=O (stereo unspecified) has T/C of 88 % of control
